The measured values listed here are drawn from patent US20250346593A1.

Test system: NF-κB pathway (SEAP) in THP1-Dual cells
method_notes: THP-1 Dual cell SEAP assay (L18-MDP stimulated)
Assay type: cell-based
condition_summary: Homo sapiens, THP1-Dual, read-out: NFkB THP1 IC50
pIC50: −log10 of the molar value.
Quick list: pIC50 per entry.

Examples with answers:
COc1cc2ncc(-c3cnc(OC(F)F)c(N)c3)n2cc1S(=O)(=O)C(C)(C)C [Example 50]	< 6.00
COc1cc2ncc(-c3cc(F)c(OCCO)c(Br)c3)n2cc1S(=O)(=O)C(C)(C)C [Example 306]	6.60 to 7.30
COc1cn2ncc(-c3cc(F)c(N)nc3F)c2cc1S(=O)(=O)C(C)(C)C [Example 100]	6.00 to 6.60

Query: What does the record list as pIC50 for COc1cc2ncc(-c3csc(N)n3)n2cc1S(=O)(=O)C(C)(C)C [Example 165] ?
Result: 6.00 to 6.60

Query: Also, CCOc1cc2ncc(-c3cc(Cl)c(N)nc3F)n2cc1S(=O)(=O)C(C)C [Example 118] please.
Result: 6.00 to 6.60

Query: Also, CCCS(=O)(=O)Nc1cc(-c2cnc3cc(OC)c(S(=O)(=O)C(C)(C)C)cn23)cc(C)c1F [Example 290] please.
Result: < 6.00

Query: Also, COc1cc2ncc(-c3cc(C)c(OC)c(Cl)n3)n2cc1S(=O)(=O)C(C)(C)C [Example 55] please.
Result: < 6.00

Query: Also, COc1cc2ncc(-c3cc(N)nc(C(F)(F)F)c3)n2cc1S(=O)(=O)C(C)(C)C [Example 6] please.
Result: < 6.00

Query: Also, CC(C)(O)CCNc1cc(-c2cnc3ccc(S(=O)(=O)C(C)(C)C)cn23)cc(F)n1 [Example 174] please.
Result: 6.60 to 7.30

---

System: NF-κB pathway (SEAP) in THP1-Dual cells
method_notes: THP-1 Dual cell SEAP assay (L18-MDP stimulated)
Assay type: cell-based
condition_summary: Homo sapiens, THP1-Dual, read-out: NFkB THP1 IC50
parameter: IC50

Examples with answers:
COc1cc2ncc(-c3cc(F)nc(NC[C@H](O)CO)c3)n2cc1S(=O)(=O)C(C)(C)C	0.05 to 0.25 µM
CCCS(=O)(=O)Nc1cc(-c2cnc3cc(OC)c(S(=O)(=O)C(C)(C)C)cn23)cnc1OC	0.05 to 0.25 µM
COc1cc2ncc(-c3cc(N)c(OC)c(F)c3)n2cc1S(=O)(=O)C(C)(C)C	> 1 µM
COc1cc2ncc(-c3cc(F)nc(N[C@H]4C[C@H](O)C4)c3)n2cc1S(=O)(=O)C(C)(C)C	< 0.05 µM
CCc1ccc(-c2cnc3cc(OC)c(S(=O)(=O)C(C)(C)C)cn23)nc1N	> 1 µM
CCCS(=O)(=O)Nc1cc(-c2cnc3cc(OC)c(S(=O)(=O)C4CC4)cn23)ccc1OC	> 1 µM

Query: What does the record list as IC50 for CCOc1cc2ncc(-c3cnc(N)c(F)c3)n2cc1S(=O)(=O)C(C)C ?
Result: > 1 µM

Query: Also, COc1cc2ncc(-c3cn[nH]c3)n2cc1S(=O)(=O)C(C)(C)C please.
Result: 0.25 to 1 µM

Query: Also, COc1cc2ncc(-c3cnc(N)c(Cl)c3)n2cc1S(=O)(=O)C(C)(C)C please.
Result: > 1 µM

Query: Also, COc1cc2ncc(-c3cc(F)c(OC)c(NCCN)c3)n2cc1S(=O)(=O)C(C)(C)C please.
Result: 0.25 to 1 µM

Query: Also, COc1cc2ncc(-c3ccc(OC)c(N)n3)n2cc1S(=O)(=O)C(C)(C)C please.
Result: > 1 µM

Query: Also, COc1cc2ncc(-c3cc(F)nc(NCCC4(O)CC4)c3)n2cc1S(=O)(=O)C(C)(C)C please.
Result: < 0.05 µM

Query: Also, CCCS(=O)(=O)Nc1cc(-c2cnn3cc(OC)c(S(=O)(=O)C(C)(C)C)cc23)cc(OC)c1OC please.
Result: < 0.05 µM

Query: Also, CCCS(=O)(=O)Nc1cc(-c2cnc3cc(OC)c(S(=O)(=O)C(C)(C)C)cn23)cc(F)c1C please.
Result: 0.25 to 1 µM

Query: Also, COc1cc2ncc(-c3cc(F)nc(NCC4CCNCC4)c3)n2cc1S(=O)(=O)C(C)(C)C please.
Result: 0.05 to 0.25 µM

Query: Also, COc1cc2ncc(-c3cc(F)nc(N[C@@H]4CC[C@H](O)C4)c3)n2cc1S(=O)(=O)C(C)(C)C (racemic) please.
Result: < 0.05 µM

Query: Also, COc1cc2ncc(-c3ccc(OC(F)(F)F)c(N)n3)n2cc1S(=O)(=O)C(C)(C)C please.
Result: > 1 µM
